- assayed_system: Cholinesterase (Homo sapiens, UniProt P06276)
- Sequence (P06276 whole entry): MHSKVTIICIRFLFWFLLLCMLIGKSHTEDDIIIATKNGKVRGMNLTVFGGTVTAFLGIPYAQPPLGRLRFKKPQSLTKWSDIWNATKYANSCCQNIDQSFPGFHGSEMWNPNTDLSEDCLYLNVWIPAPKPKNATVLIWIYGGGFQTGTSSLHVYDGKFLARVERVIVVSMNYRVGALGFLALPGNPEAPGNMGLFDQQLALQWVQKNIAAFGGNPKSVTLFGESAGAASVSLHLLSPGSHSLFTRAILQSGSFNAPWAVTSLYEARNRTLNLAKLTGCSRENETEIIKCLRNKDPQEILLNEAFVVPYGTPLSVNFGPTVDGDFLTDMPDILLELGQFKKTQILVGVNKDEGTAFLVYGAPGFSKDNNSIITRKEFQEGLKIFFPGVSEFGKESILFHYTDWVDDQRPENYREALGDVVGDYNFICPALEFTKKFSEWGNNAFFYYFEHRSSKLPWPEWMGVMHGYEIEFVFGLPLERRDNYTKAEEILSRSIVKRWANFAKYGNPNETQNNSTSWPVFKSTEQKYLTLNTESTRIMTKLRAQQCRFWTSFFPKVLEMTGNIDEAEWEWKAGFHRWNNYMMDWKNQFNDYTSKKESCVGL
- run_description: Inhibition of human recombinant BChE
observed_property: IC50 (µM)
Give a bare numeral; the unit µM is implied.

Recorded IC50, per entry:
[[record]]
mol = "COc1cc2cc(-c3ccc(CN(CCO)Cc4ccccc4)cc3)c(=O)oc2cc1OC"
recorded_measurement = 35.1

[[record]]
mol = "COc1ccccc1CN(C)Cc1ccc(-c2cc3cc(OC)c(OC)cc3oc2=O)cc1"
recorded_measurement = 52.9

[[record]]
mol = "COc1ccc2oc(-c3ccc(CN(C)Cc4ccccc4)cc3)cc(=O)c2c1"
recorded_measurement = 88.9

[[record]]
mol = "COc1cc2cc(-c3cccc(CN(C)Cc4ccccc4)c3)c(=O)oc2cc1OC"
recorded_measurement = 279

[[record]]
mol = "COc1ccc2oc(=O)c(-c3cccc(CN(C)Cc4ccccc4)c3)cc2c1"
recorded_measurement = 136

[[record]]
mol = "COc1ccc2cc(-c3ccc(CN(C)Cc4ccccc4)cc3)c(=O)oc2c1"
recorded_measurement = 570

[[record]]
mol = "COc1ccc2oc(=O)c(-c3ccc(CN(C)Cc4ccccc4)cc3)cc2c1"
recorded_measurement = 1300


Next:
Param item = `COc1cc2cc(-c3ccc(C[N+](C)(C)Cc4ccccc4)cc3)c(=O)oc2cc1OC` ; retrieve measured IC50.
43.8

###

# key: entry, value: log10 of IC50
- assayed_system: Acetylcholinesterase (Homo sapiens)
- run_description: Inhibition of human recombinant AChE
Scale: log10; quantity: IC50; unit before log: nM

Here is how some compounds turned out for log10 of IC50.
[[record]]
mol = "COc1cc2cc(-c3ccc(CN(C)Cc4cccc([N+](=O)[O-])c4)cc3)c(=O)oc2cc1OC"
recorded_measurement = 2.57

[[record]]
mol = "COc1ccc2c(=O)cc(-c3ccc(CN(C)Cc4ccccc4)cc3)oc2c1"
recorded_measurement = 4.91

[[record]]
mol = "COc1cc2oc3cc(CN(C)Cc4ccccc4)ccc3c(=O)c2cc1OC"
recorded_measurement = 4.48

[[record]]
mol = "COc1cc2oc(-c3cccc(CN(C)Cc4ccccc4)c3)cc(=O)c2cc1OC"
recorded_measurement = 3.36


Would you mind telling me what log10 of IC50 value was observed for `COc1cc2cc(-c3ccc(CN(C)Cc4ccccc4C)cc3)c(=O)oc2cc1OC` ?
2.56

###

- assayed_system: Acetylcholinesterase (Homo sapiens, UniProt P22303)
- Sequence (P22303 whole entry): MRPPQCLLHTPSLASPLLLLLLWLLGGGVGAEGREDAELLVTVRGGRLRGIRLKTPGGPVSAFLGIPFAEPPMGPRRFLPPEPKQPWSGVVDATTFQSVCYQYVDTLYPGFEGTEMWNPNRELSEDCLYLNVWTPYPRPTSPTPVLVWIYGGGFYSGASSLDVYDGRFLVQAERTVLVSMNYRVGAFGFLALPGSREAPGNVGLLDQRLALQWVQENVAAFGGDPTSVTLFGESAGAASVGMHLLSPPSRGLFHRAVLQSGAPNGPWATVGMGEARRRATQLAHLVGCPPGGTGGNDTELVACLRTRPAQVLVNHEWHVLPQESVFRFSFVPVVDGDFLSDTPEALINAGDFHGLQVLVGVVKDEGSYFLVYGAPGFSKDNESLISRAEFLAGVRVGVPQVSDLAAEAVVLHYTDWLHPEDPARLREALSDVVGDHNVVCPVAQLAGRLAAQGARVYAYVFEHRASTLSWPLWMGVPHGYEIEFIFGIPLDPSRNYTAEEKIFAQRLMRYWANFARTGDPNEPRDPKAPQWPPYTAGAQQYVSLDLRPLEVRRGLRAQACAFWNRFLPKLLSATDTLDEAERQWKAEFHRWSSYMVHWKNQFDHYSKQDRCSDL
- run_description: Inhibition of human AChE-mediated beta amyloid 1-40 aggregation at 100 uM
In this section, each of the molecules is paired with its reported inhibition.
Quick reminder: number only, in %, skip the unit.

Worked set:
[[record]]
mol = "CCN(Cc1ccccc1)Cc1ccc(-c2cc3cc(OC)c(OC)cc3oc2=O)cc1"
observed_property = "inhibition"
recorded_measurement = 38

[[record]]
mol = "COc1cc2cc(-c3ccc(CN(C)Cc4ccccc4)cc3)c(=O)oc2cc1OC"
observed_property = "inhibition"
recorded_measurement = 35

[[record]]
mol = "COc1ccccc1CN(C)Cc1ccc(-c2cc3cc(OC)c(OC)cc3oc2=O)cc1"
observed_property = "inhibition"
recorded_measurement = 15

[[record]]
mol = "COc1cc2cc(-c3ccc(CN(CCO)Cc4ccccc4)cc3)c(=O)oc2cc1OC"
observed_property = "inhibition"
recorded_measurement = 6


Now consider a different molecule.
Fill blank: measured inhibition of the molecule `COc1cc2cc(-c3cccc(CN(C)Cc4ccccc4)c3)c(=O)oc2cc1OC` is ____.
25
